Tested on: OVCAR-3 ovarian
Assay: NCI-60 one-dose screen, 48 h (100 = growth as untreated, 0 = no growth, -100 = all killed)
Details: 10 µM unless noted
This is part of a sample that, as a whole, favours compounds with a hit. Of some 83,000 tested, about 20% had one in any assay.
readout.name: growth (%)
Report the figure in % without appending any unit label.

CN(C)c1ccc2nc3ccc(=[N+](C)C)c([N+](=O)[O-])c-3sc2c1
-12.5
COc1cc(/C=C/c2ccccc2)cc(OC)c1
105
COc1ccc(NC(=O)n2nc(/C=C\c3ccc(O)c(OC)c3)cc2/C=C\c2ccc(O)c(OC)c2)cc1
13.6
NCCCNc1nc2ccc(Cl)cc2c2c(=O)c3cc(F)ccc3sc12
8.74
CCCCCCNC(=O)Oc1ccc(/C(=C(\C)c2ccc(Cl)cc2)c2ccc(OCCCN(C)C)cc2)cc1
87.8

# input for lookup
I have this compound here, `COc1cc(CCC[P+](c2ccccc2)(c2ccccc2)c2ccccc2)c(OC)c(OC)c1OC` , and I need its recorded growth.
72

---

Test system: OVCAR-3 ovarian
Assay: NCI-60 one-dose screen, 48 h (100 = growth as untreated, 0 = no growth, -100 = all killed)
Details: 10 µM unless noted
The panel holds about 83,000 compounds, 20% with a hit somewhere; the sample as a whole holds those more often.
readout.name: growth (%)
Entry rule: numbers only, all in %.

Use the examples below as a reference point.
CC(C)n1cnc2c(Nc3cccc(Cl)c3)nc(N[C@H]3CCCC[C@@H]3N)nc21
61.2
Oc1ccc(-c2nc3ccc4[nH]ncc4c3c3c2CCCC3)c2cccnc12
18.3
OC(COc1ccccc1Cl)CN1CCN(c2cccc(Cl)c2)CC1 (centres undefined)
113
COc1ccc2c(c1)nc(NNC(=O)c1cnccn1)c1cccn12
15.3
CCOC(=O)c1sc2ncc(-c3ccc(OC)cc3)n2c1C
108

Recorded growth for `CCc1ccc(Oc2c(-c3ccc(OCc4ccc(Cl)cc4)cc3O)n[nH]c2C(F)(F)F)cc1` with OVCAR-3 ovarian, please?
0.589

# value lookup — system OVCAR-3 ovarian, readout growth, item `COc1cccc(-c2nc(-c3ccc(NC(=O)OC(C)C)cc3)[nH]c2-c2ccnc(Br)c2)c1`
26.2

For OVCAR-3 ovarian, provide growth of CC1=C(SCCC(=O)OC(C[Se]C2=C(C)C(=O)c3ccccc3C2=O)C(=O)NC(C)(C)C)C(=O)c2ccccc2C1=O (centres undefined) please.
-97.6

I'm curious: which growth was measured for `COc1ccc(-c2nc(NCCO)[nH]c(=O)c2C#N)cc1` tested on OVCAR-3 ovarian?
111

Write down the reported growth of `CN1CCN(Cc2ccc(NC(=O)c3cncc(C#Cc4cnccc4C#N)c3)cc2C(F)(F)F)CC1` , test system: OVCAR-3 ovarian.
86.3

Test system OVCAR-3 ovarian; read-out growth; what value for `CNC(=O)c1[nH]cc(-c2ccccc2)c1-c1cc(OC)c2c(c1OC)OCO2` ?
94.9

Request - read-out growth | tested on OVCAR-3 ovarian | compound Cc1cccc2c3c(sc12)C(c1ccc(Cl)cc1)C(C#N)=C(/N=C/c1ccc(Cl)cc1)O3 (centres undefined)
-2.5

# query: growth | item `COc1ccc2[nH]c(-c3ccccc3)c(/C=C(\C#N)S(=O)(=O)c3ccccc3)c2c1` | system: OVCAR-3 ovarian
45.1

Entry `COc1cc(C(=O)c2cc(C)c3[nH]c4ccc(O)cc4c3c2C)cc(OC)c1OC` , system OVCAR-3 ovarian: what growth was measured?
-45

Enter reported growth observed with OVCAR-3 ovarian for `CCCCCCn1c(-c2ccc(C(=O)O/N=C(\N)c3ccc(OC)cc3)cc2)nc(-c2ccccc2)c1-c1ccccc1`
18
